test: physchem; details: 25 °C, organic solvent or mixture
Attribute Measured: solubility

Query: Would you mind telling me what solubility value was observed for O=C1[C@H]2NCC[C@H]2N1S(=O)(=O)O ?
Result: ≤ 200 mg/mL

Data provenance is patent US20100305315A1.
